target: BRD4-BD1 (Homo sapiens (Human), UniProt O60885); experiment: competitive TR-FRET assay, BET-BD with acetylated peptide ligand; type: binding; details: BRD4-BD1; Table 11 additional modifications; read-out: 4.1 EC50
pEC50: −log10 of the molar value.
property: pEC50

Some solved entries appear below for comparison.
> print(dat)
                              record.smiles  property  experimental.value
1  CC(=O)Nc1cccc(-c2ccc3c(c2)[C@H](Nc2ccc(S(=O)(=O)N(C)C)cc2)C[C@H](C)N3C(C)=O)c1     pEC50                5.26
2  CC(=O)N1c2ccc(-c3ccnn3C)cc2[C@H](NC(=O)OC(C)C)C[C@@H]1C     pEC50                4.70
3  CNCc1ccc(N[C@@H]2C[C@H](C)N(C(C)=O)c3ccc(-c4cccc(NC(C)=O)c4)cc32)cc1     pEC50                5.82

[P] CC(=O)Nc1cccc(-c2ccc3c(c2)[C@H](Nc2ccc4c(c2)COC4=O)C[C@H](C)N3C(C)=O)c1
[Q] CC(=O)Nc1cccc(-c2ccc3c(c2)[C@H](Nc2ccc(C(=O)O)cc2)C[C@H](C)N3C(C)=O)c1
[R] CC(=O)N1c2ccc(-c3cccc(NCC4CCCCC4)c3)cc2[C@H](NC(=O)OC(C)C)C[C@@H]1C
stdin: # rank_down: sort by pEC50, max first List the labels, following the order given in the request.
stdout: P, R, Q
(P: 5.82, R: 5.30, Q: 4.89)

====

target: BRD3(1) (Homo sapiens (Human)); assay: BROMOscan KD determination; conditions: Table 10
property: Kd (nM)

> print(dat)
                              record.smiles  experimental.value
1  COC(=O)c1ccc(N[C@@H]2C[C@H](C)N(C(C)=O)c3ccc(-c4ccnn4C)cc32)cc1                  11

[I] COC(=O)c1ccc(N[C@@H]2C[C@H](C)N(C(C)=O)c3ccc(-c4cccc(NC(C)=O)c4)cc32)cc1
[II] CC(=O)Nc1cccc(-c2ccc3c(c2)[C@H](Nc2ccc4ncccc4c2)C[C@H](C)N3C(C)=O)c1
stdin: Just curious, which one has the larger Kd reading, I or II ? API: response body contains the label of the selected item.
stdout: II
(II: 22 nM, I: 0.72 nM)

====

molecular target: BRD2-BD2 (Homo sapiens (Human), UniProt P25440); test: competitive TR-FRET assay, BET-BD with acetylated peptide ligand; assay type: binding; details: BRD2-BD2; Table 11 additional modifications; read-out: 2.2 EC50
Sequence (P25440 344-453): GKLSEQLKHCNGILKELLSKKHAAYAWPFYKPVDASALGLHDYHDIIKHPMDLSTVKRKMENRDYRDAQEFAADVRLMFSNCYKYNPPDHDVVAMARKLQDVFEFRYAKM
property: EC50 (nM)

> print(dat)
                                   compound  property  experimental.value
1  COc1ccc(-c2ccc3c(c2)[C@H](NC(=O)OC(C)C)C[C@H](C)N3C(C)=O)cc1      EC50                1200

[a] CC(=O)N1c2ccc(-c3cccc(NCC4CCOC4)c3)cc2[C@H](Nc2ccccc2OC(F)(F)F)C[C@@H]1C (stereo partly drawn)
[b] CC(=O)Nc1cccc(-c2ccc3c(c2)[C@H](Nc2cncnc2)C[C@H](C)N3C(C)=O)c1
stdin: Hi, I'm comparing two records. Which one has the lower EC50, a or b ? Mark your answer with the label of the selected entry.
stdout: a
(a: 670 nM, b: 980 nM)

====

molecular target: BRD2(2) (Homo sapiens (Human), UniProt P25440); assay: BROMOscan KD determination; assay type: binding; settings: BROMOscan KD ratio
property: [2(1)/2(2)]

> print(dat)
                              record.smiles  experimental.value
1  CC(=O)Nc1cccc(-c2ccc3c(c2)[C@H](Nc2ccccc2OC(F)(F)F)C[C@H](C)N3C(C)=O)c1                48.6

[1] COC(=O)c1ccc(N[C@@H]2C[C@H](C)N(C(C)=O)c3ccc(-c4cccc(NCCC(F)(F)F)c4)cc32)cc1
[2] CC(=O)Nc1cccc(-c2ccc3c(c2)[C@H](Nc2ccccc2C(F)(F)F)C[C@H](C)N3C(C)=O)c1
stdin: Hi, I'm comparing 1 with 2 and wondering which one has the bigger number for [2(1)/2(2)]. Any idea? Identify your selection by its label.
stdout: 2
(2: 49.4, 1: 8.2)

====

biological target: BRD2-BD2 (Homo sapiens (Human), UniProt P25440); assay: competitive TR-FRET assay, BET-BD with acetylated peptide ligand; type: binding; conditions: ratio of BRD2-BD1 EC50 to BRD2-BD2 EC50 (selectivity)
property: 2.1/2.2

> print(dat)
                                   molecule  experimental.value
1  CC(=O)N1c2ccc(-c3cccc(NC(=O)C(C)(C)C)c3)cc2[C@H](Nc2ccc(Cl)cc2)C[C@@H]1C [compound 206]                  57
2  CC(=O)N1c2ccc(-c3cccc(NCc4ccccc4)c3)cc2[C@H](NC(=O)OC(C)C)C[C@@H]1C [compound 117]                  39
3  COc1cc(N[C@@H]2C[C@H](C)N(C(C)=O)c3ccc(-c4cccc(NC(C)=O)c4)cc32)ccc1C#N [compound 191]                  26
4  CCCCNc1cccc(-c2ccc3c(c2)[C@H](NC(=O)OC(C)C)C[C@H](C)N3C(C)=O)c1 [compound 114]                 9.1
5  COc1cccc(N[C@@H]2C[C@H](C)N(C(C)=O)c3ccc(-c4cccc(NC(C)=O)c4)cc32)c1 [compound 21]                  31
6  CC(=O)N1c2ccc(-c3cccc(CCO)c3)cc2[C@H](NC(=O)OC(C)C)C[C@@H]1C [compound 89]               0.067

[1] CC(=O)Nc1cccc(-c2ccc3c(c2)[C@H](Nc2cncnc2)C[C@H](C)N3C(C)=O)c1 [compound 16]
[2] CC(=O)Nc1cccc(-c2ccc3c(c2)[C@H](NC(=O)c2ccc(F)cc2)C[C@H](C)N3C(C)=O)c1 [compound 68]
stdin: Hi, I'm comparing 1 with 2 and wondering which one has the bigger number for 2.1/2.2. Any idea? State the label of the item chosen.
stdout: 1

====

target: BRD3-BD1 (Homo sapiens (Human)); assay: competitive TR-FRET assay, BET-BD with acetylated peptide ligand; type: binding; conditions: BRD3-BD1; Table 11 additional modifications; read-out: 3.1 EC50
Sequence (Q15059 34-140): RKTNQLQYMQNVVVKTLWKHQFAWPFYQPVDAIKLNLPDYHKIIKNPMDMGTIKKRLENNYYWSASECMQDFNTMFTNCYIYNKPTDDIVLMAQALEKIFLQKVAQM
pEC50: −log10 of the molar value.
property: pEC50

Example entries and their recorded answers appear below.
> print(dat)
                                   compound  experimental.value
1  CC(=O)Nc1cccc(-c2ccc3c(c2)[C@H](NC(=O)CC(C)C)C[C@H](C)N3C(C)=O)c1 [compound 73]                4.92
2  CC(=O)N1c2ccc(-c3ccnn3C)cc2[C@H](Nc2ccccc2OC(F)(F)F)C[C@@H]1C [compound 145]                4.68
3  CC(=O)N1c2ccc(-c3cccc(NC(=O)CCc4ccccc4)c3)cc2[C@H](NC(=O)OC(C)C)C[C@@H]1C [compound 116]                6.55

[a] CCCNc1cccc(-c2ccc3c(c2)[C@H](NC(=O)OC(C)C)C[C@H](C)N3C(C)=O)c1 [compound 111]
[b] CC(=O)Nc1ccc(N[C@@H]2C[C@H](C)N(C(C)=O)c3ccc(-c4cccc(NC(C)=O)c4)cc32)cc1 [compound 76]
stdin: # query: argmin of pEC50 over a and b To answer, give the label that identifies your chosen option.
stdout: b

====

EC50 reference
target: BRDT (Homo sapiens); experiment: competitive TR-FRET assay, BET-BD with acetylated peptide ligand; assay type: binding; details: BRDT; Table 11 additional modifications; read-out: BRDT EC50

A selection of reference data follows.
> print(dat)
                              record.smiles  experimental.value
1  CC(=O)Nc1cccc(-c2ccc3c(c2)[C@H](Nc2ccc4c(c2)OCO4)C[C@H](C)N3C(C)=O)c1              2.6 µM
2  CC(=O)N1c2ccc(-c3cccc(NC4CCCC4)c3)cc2[C@H](Nc2ccccc2OC(F)(F)F)C[C@@H]1C             > 84 µM
3  CCCCCN(CCCCC)c1cccc(-c2ccc3c(c2)[C@H](Nc2ccccc2OC(F)(F)F)C[C@H](C)N3C(C)=O)c1             > 72 µM

Consider the additional compound presented here.
stdin: I would be grateful if you could share the reported EC50 for "CC(=O)N1c2ccc(-c3ccnn3C)cc2[C@H](Nc2ccccc2OC(F)(F)F)C[C@@H]1C" .
stdout: > 58 µM

====

Target: BRDT (Homo sapiens, UniProt Q58F21)
Experiment: competitive TR-FRET assay, BET-BD with acetylated peptide ligand
Type: binding
Conditions: BRDT; Table 11 additional modifications; read-out: BRDT EC50
Procedure: Inhibitor potency was determined using a competitive TR-FRET assay as detailed herein, measuring interaction of the respective BET-BD with an acetylated peptide ligand (Table 2).
pEC50: −log10 of the molar value.
property: pEC50

> print(dat)
                              record.smiles  experimental.value
1  CC(=O)N1c2ccc(-c3cccc(NCCC(C)C)c3)cc2[C@H](NC(=O)OC(C)C)C[C@@H]1C                4.40
2  CC(=O)N1c2ccc(-c3cccc(NCC4CC4)c3)cc2[C@H](NC(=O)OC(C)C)C[C@@H]1C                4.23
3  CCCCN(CCCC)c1cccc(-c2ccc3c(c2)[C@H](Nc2ccc(C(=O)OC)cc2)C[C@H](C)N3C(C)=O)c1                4.47
4  CC(=O)Nc1cccc(-c2ccc3c(c2)[C@H](Nc2ccc(C(=O)CO)cc2)C[C@H](C)N3C(C)=O)c1                5.32

[I] CC(=O)N1c2ccc(-c3cccc(NCc4ccccc4)c3)cc2[C@H](NC(=O)OC(C)C)C[C@@H]1C
[II] CC(=O)N1c2ccc(-c3cccc(NCCC(C)(C)C)c3)cc2[C@H](NC(=O)OC(C)C)C[C@@H]1C
stdin: # argmax over pEC50 for candidates I and II When you have decided, please share the label of that item.
stdout: I

Just for reference, patent US11028051B2 is where these values come from.
